B1: LINE1-full (parent)
chain: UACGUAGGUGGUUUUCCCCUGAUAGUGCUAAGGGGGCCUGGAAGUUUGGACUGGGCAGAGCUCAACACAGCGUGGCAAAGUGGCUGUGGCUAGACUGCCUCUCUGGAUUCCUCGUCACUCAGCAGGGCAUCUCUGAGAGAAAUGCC

Variants of: B1
Assay Notes: self-cleavage, relative activity (ratio to wild type); higher = more cleavage; in vitro, sequencing; the parent is a self-cleaving ribozyme
Please assign a class to every record based on measured self-cleavage, with ranges lowest (below 0.3), middle (0.3 to below 1), highest (1 or more)

A64U A78G
lowest
G33U A59U
middle
A129U A140U
middle
C28A U108C
highest
A79G G137A
highest
U85C U143C
lowest
A65U
lowest
U13C C63U
middle
U73C A94C
middle
A77U A107U
middle
G32C U115C
highest
U47A C90U
lowest
G74U U102C
highest
U115C A129C
highest
U9C A79G
highest
G10A G36C
highest
C113U G144A
middle
G40A U115C
highest
A57G G74A
middle
U45C U62A
lowest
